Tested on: HeLa
Assay: Antiproliferative activity against wild type human HeLa cells assessed as inhibition of cell growth by SRB assay
Assay type: functional, cell-based
quantity-name: IC50 (nM)

Some entries whose results are on file:
[
  {
    "cpd-smiles": "CCCNc1nc(C)nc(N(C)c2ccc3c(OC)cccc3c2)c1Cl",
    "result-units": "nM",
    "IC50": 368
  },
  {
    "cpd-smiles": "COc1ccc(N(C)c2nc(C)nc(N)c2C)cc1",
    "result-units": "nM",
    "IC50": 229
  },
  {
    "cpd-smiles": "COc1ccc(N(C)c2nc(C)nc(NCC(C)C)c2Cl)cc1",
    "result-units": "nM",
    "IC50": 96.7
  }
]

(P) COc1ccc2c(c1)CCCN2c1nc(C)nc(NC(=O)C(C)(C)C)c1Cl
(Q) CCCCNc1nc(C)nc(N(C)c2ccc(OC)cc2)c1Cl
-- ask // returns P or Q , whichever has the lower IC50 Pick one; state its label.
-- reply Q
(Q: 66.2 nM, P: 2600 nM)

(a) CCCNc1nc(C)nc(N(C)c2ccc(OC)cc2)c1Cl
(b) Cc1nc(N)c(Cl)c(N(C)c2ccc3c(c2)CCO3)n1
(c) CNc1nc(C)nc(N(C)c2ccc(OC)cc2)c1Cl
-- ask Arrange items by their IC50 values in increasing order. Returns: the labels listed in the requested order.
-- reply a, c, b
